study-target: Neu5Ac(a2-3)Gal(b1-4)Glc
method: glycan array binding signal (z-score within array); higher = stronger binding
cond: glycan notation: IUPAC condensed, linker removed
Only a selection was taken, and the strongest signals are over-represented in it overall.
glycan array binding signal (z-score) of -0.3 or higher: satisfied. Under -0.3: not satisfied.

# input Confirm if glycan array binding signal (z-score) reported for the binder ZG16p (Homo sapiens), O60844 (protein) ARSSSYSGEYGGGGGKRFSHSGNQLDGPITALRVRVNTYYIVGLQVRYGKVWSDYVGGRNGDLEEIFLHPGESVIQVSGKYKWYLKKLLFVTDKGRYLSFGKDSGTSFNAVPLHPNTVLRFISGRSGSLIDAIGLHWDVYPSSCSRC is -0.3 or above.
# output satisfied

# input Confirm if glycan array binding signal (z-score) reported for the binder MGL6A (Homo sapiens) (protein) MTRTYENFQYLENKVKVQGFKNGPLPLQSLLQRLCSGPCHLLLSLGLGLLLLVIICVVGFQNSKFQRDLVTLRTDFSNFTSNTVAEIQALTSQGSSLEETIASLKAEVEGFKQERQAVHSEMLLRVQQLVQDLKKLTCQVATLNNNGEEASTEGTCCPVNWVEHQDSCYWFSHSGMSWAEAEKYCQLKNAHLVVINSREEQNFVQKYLGSAYTWMGLSDPEGAWKWVDGTDYATGFQNWKPGQPDDWQGHGLGGGEDCAHFHPDGRWNDDVCQRPYHWVCEAGLGQTSQESH is -0.3 or above.
# output not satisfied

# input Confirm if glycan array binding signal (z-score) reported for the binder PILRa (Homo sapiens), Q9UKJ1 (protein) MGRPLLLPLLPLLLPPAFLQPSGSTGSGPSYLYGVTQPKHLSASMGGSVEIPFSFYYPWELATAPDVRISWRRGHFHRQSFYSTRPPSIHKDYVNRLFLNWTEGQKSGFLRISNLQKQDQSVYFCRVELDTRSSGRQQWQSIEGTKLSITQAVTTTTQRPSSMTTTWRLSSTTTTTGLRVTQGKRRSDSWHISLETAVGVAVAVTVLGIMILGLICLLRWRRRKGQQRTKATTPAREPFQNTEEPYENIRNEGQNTDPKLNPKDDGIVYASLALSSSTSPRAPPSHRPLKSPQNETLYSVLKA is -0.3 or above.
# output satisfied

# input Confirm if glycan array binding signal (z-score) reported for the binder Arath Fbox LD (Arabidopsis thaliana) (protein) EFSVWLEKASGKRCLMLSAMNLSIIWGDNPQYWQWIPIPESRFEKVAKLRDVCWFEIRGRTNTRVLSPRTRYSAYIVFKGVDKCYGFQNVAIEAAVGVVGQEPSRRLICFSEAIRRGRRNVVKPKQREDGWMEIELGEFFNDGGIMDNDEIEMSALETKQLNRKCGLIIQGIEIRPAKILAAASFLEQKLISEEDLNSAVDHHHHHH is -0.3 or above.
# output not satisfied
